target: T1, IGF-1R (coated on Maxisorp plates) (UniProt P08069 31-932, limits assumed); experiment: competition ELISA, plate-coated IGF-1R, antibody titrated against 20 ng/mL IGF-1 biotin
T1 construct: also called the receptor
T1 sequence (P08069 31-932 limits assumed): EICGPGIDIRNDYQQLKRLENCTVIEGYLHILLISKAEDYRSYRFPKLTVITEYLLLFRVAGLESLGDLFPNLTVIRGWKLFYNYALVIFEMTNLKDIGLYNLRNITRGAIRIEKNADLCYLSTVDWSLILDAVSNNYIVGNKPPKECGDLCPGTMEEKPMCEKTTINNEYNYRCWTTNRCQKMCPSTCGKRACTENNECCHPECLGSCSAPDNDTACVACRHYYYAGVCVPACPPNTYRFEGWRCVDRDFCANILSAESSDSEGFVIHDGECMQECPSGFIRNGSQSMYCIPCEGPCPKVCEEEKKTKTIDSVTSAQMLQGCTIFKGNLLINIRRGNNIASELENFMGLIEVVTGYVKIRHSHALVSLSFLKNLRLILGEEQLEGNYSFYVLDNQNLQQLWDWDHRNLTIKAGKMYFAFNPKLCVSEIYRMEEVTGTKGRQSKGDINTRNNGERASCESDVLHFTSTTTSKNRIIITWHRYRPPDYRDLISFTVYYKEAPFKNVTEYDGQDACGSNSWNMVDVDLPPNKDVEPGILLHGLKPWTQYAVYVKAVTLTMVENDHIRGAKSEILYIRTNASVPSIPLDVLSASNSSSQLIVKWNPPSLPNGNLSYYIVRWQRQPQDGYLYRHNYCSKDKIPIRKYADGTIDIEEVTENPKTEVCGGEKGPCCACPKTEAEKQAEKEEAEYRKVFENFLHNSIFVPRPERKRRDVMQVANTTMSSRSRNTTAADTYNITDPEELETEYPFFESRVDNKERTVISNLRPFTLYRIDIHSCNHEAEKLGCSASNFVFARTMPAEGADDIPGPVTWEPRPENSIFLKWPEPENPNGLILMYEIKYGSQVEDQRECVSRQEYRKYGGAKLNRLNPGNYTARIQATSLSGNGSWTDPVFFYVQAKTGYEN
Each record here notes measured IC50.
# unit: µg/mL | format: bare number

Study these solved cases before continuing.
INSERT INTO measurements (binder, readout_type, units_of_measure, assay_value) VALUES
  ('A11 antibody (antibody, V domains shown, Whole antibody) VH: QVELVESGGGVVQPGRSQRLSCAASGFTFSSYGMHWVRQAPGKGLEWVAYIWFDGSSTYYADSVRGRFTISRDNSKNTLYLQMNSLRAEDTAVYFCARELGRRYFDLWGRGTLVSVSS VL: EIVLTQSPATLSLSPGERATLSCRASQSVSSYLAWYQQKPGQAPRLLIYDASKRATGIPARFSGSGSGTDFTLTISSLEPEDFAVYYCQQRSKYPPWTFGQGTKVESK', 'IC50', 'µg/mL', 0.351),
  ('B09 antibody (antibody, V domains shown, Whole antibody) VH: QVELVESGGGVVQPGRSQRLSCAASGFTFSSHGMHWVRQAPGKGLEWVAIIAGDASTTYYADSVRGRFTISRDNSKNTLYLQMNSLRAEDTAVYFCARELGRRYFDLWGRGTLVSVSS VL: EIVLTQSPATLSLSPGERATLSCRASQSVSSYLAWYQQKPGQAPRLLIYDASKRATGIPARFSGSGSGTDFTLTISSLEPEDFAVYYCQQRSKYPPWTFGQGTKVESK', 'IC50', 'µg/mL', 0.337),
  ('H11 antibody (antibody, V domains shown, Whole antibody) VH: QVELVESGGGVVQPGRSQRLSCAASGFTFSSYGMHWVRQAPGKGLEWVATIWHDGSSTYYADSVRGRFTISRDNSKNTLYLQMNSLRAEDTAVYFCARELGRRYFDLWGRGTLVSVSS VL: EIVLTQSPATLSLSPGERATLSCRASQSVSSALAWYQQKPGQAPRLLIYDASKRATGIPARFSGSGSGTDFTLTISSLEPEDFAVYYCQQRGKYPPWTFGQGTKVESK', 'IC50', 'µg/mL', 0.452);

(Q) Item E01 antibody (antibody, V domains shown, Whole antibody) VH: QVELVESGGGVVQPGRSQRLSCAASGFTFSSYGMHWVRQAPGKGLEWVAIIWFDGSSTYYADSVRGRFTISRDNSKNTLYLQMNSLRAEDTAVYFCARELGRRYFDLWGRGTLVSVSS VL: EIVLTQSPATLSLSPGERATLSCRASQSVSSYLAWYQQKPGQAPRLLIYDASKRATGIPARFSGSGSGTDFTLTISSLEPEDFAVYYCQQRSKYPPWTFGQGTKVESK : provide IC50
(A) 0.388

(Q) Item B02 antibody (antibody, V domains shown, Whole antibody) VH: QVELVESGGGVVQPGRSQRLSCAASGFTFSSTGMHWVRQAPGKGLEWVAYIWFDGSSTYYADSVRGRFTISRDNSKNTLYLQMNSLRAEDTAVYFCARELNRRYFDLWGRGTLVSVSS VL: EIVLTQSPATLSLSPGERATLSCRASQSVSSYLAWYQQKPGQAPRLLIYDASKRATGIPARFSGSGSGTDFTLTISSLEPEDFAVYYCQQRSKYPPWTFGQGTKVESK : provide IC50
(A) 0.386
